// data source = patent US9809598B2

Field: IC50. Provide a value for each of the molecules that follow.
Molecular target: TNKS1 (Homo sapiens, UniProt O95271)
Construct: GST-tagged Tnks-1 (1023-1327 aa, prepared in-house); made in house
Sequence (O95271 1023-1327): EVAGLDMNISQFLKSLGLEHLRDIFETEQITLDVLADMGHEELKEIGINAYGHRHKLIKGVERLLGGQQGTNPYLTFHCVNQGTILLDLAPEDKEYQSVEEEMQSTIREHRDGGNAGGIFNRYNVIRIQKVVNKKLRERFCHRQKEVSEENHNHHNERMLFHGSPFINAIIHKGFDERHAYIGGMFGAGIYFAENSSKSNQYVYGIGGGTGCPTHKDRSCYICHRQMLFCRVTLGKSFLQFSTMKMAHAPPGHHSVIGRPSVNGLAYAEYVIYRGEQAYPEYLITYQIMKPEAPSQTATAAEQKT
Assay: TNKS1 activity ELISA (autoparsylation assay)
Assay type: biochemical
Settings: GST-tagged Tnks-1 (1023-1327 aa)
// return numeric value only (unit: nM, not printed)

Notebook: `Cc1csc2c(=O)[nH]c(CCCC(=O)N3CCC(C(=O)c4cnn(C)c4)CC3)nc12` , IC50 read as 0.49

The value of IC50 measured for the molecule `Cc1csc2c(=O)[nH]c(CCCC(=O)N3CCC(C(=O)c4ccc(C(C)(C)O)cc4)CC3)nc12` turned out to be 2.1

Query `COc1ccc(C(=O)C2CCN(C(=O)CCCc3nc4c(c(=O)[nH]3)COCC4)CC2)cc1` yields IC50 of 1.4

In plain terms, `O=C(c1ccc(F)cc1)C1CCN(C(=O)CCCc2nn3cc(F)cc3c(=O)[nH]2)CC1` has a documented IC50 of 0.47

GET /value?item= `COc1ccc(C(=O)C2CCN(C(=O)CCCc3nc4c(C)csc4c(=O)[nH]3)CC2)cc1` &field=IC50 returns 0.19
